These data points were gathered from patent US20240116985A1.

tested_on: T1, B-cat-Halo (UniProt P35222 1-781)
T1 sequence (looked up): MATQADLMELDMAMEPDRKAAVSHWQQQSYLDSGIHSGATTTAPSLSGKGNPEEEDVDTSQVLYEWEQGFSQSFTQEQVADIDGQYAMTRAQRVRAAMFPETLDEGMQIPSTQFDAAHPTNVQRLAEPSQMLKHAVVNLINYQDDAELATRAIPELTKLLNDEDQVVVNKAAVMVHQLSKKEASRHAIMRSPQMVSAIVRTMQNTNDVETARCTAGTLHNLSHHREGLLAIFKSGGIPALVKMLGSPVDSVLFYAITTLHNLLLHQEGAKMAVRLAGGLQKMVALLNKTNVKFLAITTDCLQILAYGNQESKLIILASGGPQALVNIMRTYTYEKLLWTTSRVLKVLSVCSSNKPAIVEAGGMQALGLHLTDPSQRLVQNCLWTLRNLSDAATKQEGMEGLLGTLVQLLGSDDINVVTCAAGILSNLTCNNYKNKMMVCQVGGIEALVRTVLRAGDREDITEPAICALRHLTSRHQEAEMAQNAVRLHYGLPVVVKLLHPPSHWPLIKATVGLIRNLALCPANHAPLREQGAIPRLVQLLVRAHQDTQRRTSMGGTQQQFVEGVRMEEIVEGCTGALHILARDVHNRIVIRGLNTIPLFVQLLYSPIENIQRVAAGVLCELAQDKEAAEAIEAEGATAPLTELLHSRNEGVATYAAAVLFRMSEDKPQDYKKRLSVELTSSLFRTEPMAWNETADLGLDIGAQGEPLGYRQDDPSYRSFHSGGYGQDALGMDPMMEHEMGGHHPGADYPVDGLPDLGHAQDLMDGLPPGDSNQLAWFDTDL
assay_explanation: cell-based or functional assay
Starred links: 1 amine or outer side, 2 acyl side, 3 side chain; linkers in the order of their positions; H or OH if unused. Positions of bridges follow the written chain, without caps; N, C: chain ends. Non-standard residues stand in square brackets, D forms with d. Primed or numbered codes have the meaning given here. PyrS2″ = (S)-3-amino-1-((pent-4-en-1-yloxy)carbonyl)pyrrolidine-3-carboxylic acid (stapling residue), C=CCCCOC(=O)N1CC[C@@](N[*:1])(C(=O)[*:2])C1; B5(5) = 2,2-bis(4-pentenyl)glycine, 2-amino-2-(pent-4-en-1-yl)hept-6-enoic acid (stitching residue), C=CCCCC(CCCC=C)(N[*:1])C(=O)[*:2]; Phe(2-Cl) = N[C@@H](Cc1ccccc1Cl)C(=O)O; Bta = N[C@@H](Cc1csc2ccccc12)C(=O)O; Lys(iPr) = CC(C)NCCCC[C@H](N)C(=O)O; αAllylPro = C=CC[C@@]1(C(=O)O)CCCN1; tBuAla = CC(C)(C)C[C@H](N)C(=O)O
property_measured: NanoBRET Abs IC50

Tell me the measured NanoBRET Abs IC50 of Ac-[αAllylPro]D[tBuAla][B5(5)]DD[Lys(iPr)]AFL[PyrS2″][Phe(2-Cl)][Bta]T-NH2 (staple 1-4; staple 4-11 (inferred); not fully specified; printed as Ac-PL3-Asp-Npg-B5-Asp-Asp-iPrLys-Ala-Phe-Leu-PyrS2-2C1F-BztA-Thr-NH2) [I-1276] , please.
> 20 µM

Another binder to look at: Ac-[αAllylPro]D[tBuAla][B5(5)]DD[Lys(iPr)]AFL[PyrS2″][Phe(2-Cl)][Bta]Q-NH2 (staple 1-4; staple 4-11 (inferred); not fully specified; printed as Ac-PL3-Asp-Npg-B5-Asp-Asp-iPrLys-Ala-Phe-Leu-PyrS2-2C1F-BztA-Gln-NH2) [I-1275]
27.8 µM
